Tested on: VchCAST RNA-guided transposition machinery (E. coli BL21(DE3) host, lacZ target)
experimental protocol: relative integration efficiency (T-RL orientation) vs wild-type transposon end (log2 (normalized fold change)); transposon end mutated: right end (5 bp flank + 75 bp right end); higher = more efficient transposition
reported endpoint: relative integration efficiency (log2)

- ACATTTGTTGATACAACCATAAAATGATACTTACACCCATAAATTGATACTTATCACACCCATAAATTGATAGTGCCTCTGATCATAGTCAGACCAACATTGCTACGACCCGTATTCGCACCGACAC: -0.987
- ACATTTGTTGATAGTACCATAAAATGATAATTACACCCATAAATTGATAATTATCACACCCATAAATTGATATTGCCTCTGATCATAGTCAGACCAACATTGCTACGACCCGTATTCGCACCGACAC: -0.367
- ACATTTGTTCATACAACCATAAAATGATAATTACACCCATAAATGGATCATTATCACACCCAATTTAACTATAACGCTCTGATCATAGTCAGACCAACATTGCTACGACCCGTATTCGCACCGACAC: -1.79
